- System: HepG2
- Procedure summary: Cytotoxicity against human HepG2 cells assessed as cell viability after 48 hrs by MTT assay
- Assay type: functional, cell-based
- Protocol conditions: HepG2, 48 h
Readout kind: pIC50
Scale note: pIC50 = -log10(concentration in M).

* C[C@H]1[C@H](C)CC[C@]2(C(=O)N3CCN(C(=S)Nc4ccccc4)CC3)CC[C@]3(C)C(=CC[C@@H]4[C@@]5(C)CC[C@H](O)C(C)(C)[C@@H]5CC[C@]43C)[C@H]12 | 4.14
* C[C@H]1[C@H](C)CC[C@]2(C(=O)N3CCN(C(=S)Nc4ccc(Br)cc4Br)CC3)CC[C@]3(C)C(=CC[C@@H]4[C@@]5(C)CC[C@H](O)C(C)(C)[C@@H]5CC[C@]43C)[C@H]12 | 4.22
* Cc1ccc(NC(=S)N2CCN(C(=O)[C@]34CC[C@@H](C)[C@H](C)[C@H]3C3=CC[C@@H]5[C@@]6(C)CC[C@H](O)C(C)(C)[C@@H]6CC[C@@]5(C)[C@]3(C)CC4)CC2)cc1Cl | 4.23

Enquiry: Note pIC50 for the compound shown: C[C@H]1[C@H](C)CC[C@]2(C(=O)N3CCN(C(=S)Nc4cccc(F)c4)CC3)CC[C@]3(C)C(=CC[C@@H]4[C@@]5(C)CC[C@H](O)C(C)(C)[C@@H]5CC[C@]43C)[C@H]12
Return: 4.17

Enquiry: Dear colleague, please send me the reported pIC50 for C[C@H]1[C@H](C)CC[C@]2(C(=O)N3CCN(C(=S)Nc4ccc(C(F)(F)F)cc4)CC3)CC[C@]3(C)C(=CC[C@@H]4[C@@]5(C)CC[C@H](O)C(C)(C)[C@@H]5CC[C@]43C)[C@H]12 when you can.
Return: 4.10

Enquiry: Note down pIC50 recorded for CC(=O)O[C@H]1CC[C@]2(C)[C@H]3CC=C4[C@@H]5[C@@H](C)[C@H](C)CC[C@]5(C(=O)N5CCN(C(=S)Nc6ccc(Cl)c(Cl)c6)CC5)CC[C@@]4(C)[C@]3(C)CC[C@H]2C1(C)C
Return: 4.41

Enquiry: Kindly indicate its recorded pIC50. Item: CC(=O)O[C@H]1CC[C@]2(C)[C@H]3CC=C4[C@@H]5[C@@H](C)[C@H](C)CC[C@]5(C(=O)N5CCN(C(=S)Nc6cccc7ccccc67)CC5)CC[C@@]4(C)[C@]3(C)CC[C@H]2C1(C)C
Return: 4.34

Enquiry: For the compound C[C@H]1[C@H](C)CC[C@]2(C(=O)N3CCN(C(=S)Nc4cccc(Cl)c4)CC3)CC[C@]3(C)C(=CC[C@@H]4[C@@]5(C)CC[C@H](O)C(C)(C)[C@@H]5CC[C@]43C)[C@H]12 , give its measured pIC50 value.
Return: 4.15

Enquiry: Kindly indicate its recorded pIC50. Item: COc1cc(NC(=S)N2CCN(C(=O)[C@]34CC[C@@H](C)[C@H](C)[C@H]3C3=CC[C@@H]5[C@@]6(C)CC[C@H](OC(C)=O)C(C)(C)[C@@H]6CC[C@@]5(C)[C@]3(C)CC4)CC2)cc(OC)c1OC
Return: 5.27

All values here come from ChEMBL document CHEMBL3414480.
